# Test system: OVCAR-3 ovarian
# Assay Name: NCI-60 one-dose screen, 48 h (100 = growth as untreated, 0 = no growth, -100 = all killed)
# Condition Label: 10 µM unless noted
# Description: Growth inhibition of the OVCAR-3 human tumor cell line is measured as a screen for anti-cancer activity. Cells are grown in 96 well plates and exposed to the test compound for 48 hours. Compounds are tested at a single concentration, which is 10^-5 M for most compounds. The reported endpoint is percent growth (GI% or GIPRCNT), where numbers from 0 - 100% represent growth inhibition, and numbers from -100% - 0 represent cell death. For example, a value of 40 represents 60% growth inhibition. […]
This is part of a sample that, as a whole, favours compounds with a hit. Of some 83,000 tested, about 20% had one in any assay.

{"columns": ["Molecule", "System", "growth, %"],
 "data": [
  ["Oc1ccc(-c2nnc(SCc3ccc(O)c4ncccc34)n2-c2ccccc2)cc1", "OVCAR-3 ovarian", 3.67],
  ["CCCCCCCCCC[C@@H](C)[C@@H]1CC(=O)N[C@H]([C@@H](C)O)C(=O)N[C@@H](C)C(=O)N[C@H](C)C(=O)N[C@@H](CCC(N)=O)C(=O)N[C@H](Cc2ccc(O)cc2)C(=O)N[C@@H](C(C)CC)C(=O)O1 (some centres undefined)", "OVCAR-3 ovarian", 48.4],
  ["CC1OC(O[C@@H]2C(O)C(CO)OC(O[C@H]3COC(O[C@H]4CC[C@]5(C)[C@H]6CC[C@]78OC[C@@]9(CC[C@](C)(C=O)C[C@H]97)[C@H](O)C[C@@]8(C)[C@]6(C)CC[C@H]5C4(C)C)[C@@H](OC4OC(CO)[C@@H](O)[C@@H](O)[C@@H]4O)[C@@H]3O)[C@H]2OC2OC[C@@H](O)[C@@H](O)[C@@H]2O)[C@@H](O)[C@@H](O)[C@H]1O (some centres undefined)", "OVCAR-3 ovarian", 79.4],
  ["Cc1ccc(-n2cc(/C=C/C(=O)c3ccc(S(C)(=O)=O)cc3)c(-c3ccc(S(C)(=O)=O)cc3)n2)cc1", "OVCAR-3 ovarian", 75.9]
]}
